Origin of the recorded values: ChEMBL document CHEMBL1155801

- target: Sucrase-isomaltase, intestinal (Rattus norvegicus, UniProt P23739)
- Sequence (P23739 1-1013 limits assumed): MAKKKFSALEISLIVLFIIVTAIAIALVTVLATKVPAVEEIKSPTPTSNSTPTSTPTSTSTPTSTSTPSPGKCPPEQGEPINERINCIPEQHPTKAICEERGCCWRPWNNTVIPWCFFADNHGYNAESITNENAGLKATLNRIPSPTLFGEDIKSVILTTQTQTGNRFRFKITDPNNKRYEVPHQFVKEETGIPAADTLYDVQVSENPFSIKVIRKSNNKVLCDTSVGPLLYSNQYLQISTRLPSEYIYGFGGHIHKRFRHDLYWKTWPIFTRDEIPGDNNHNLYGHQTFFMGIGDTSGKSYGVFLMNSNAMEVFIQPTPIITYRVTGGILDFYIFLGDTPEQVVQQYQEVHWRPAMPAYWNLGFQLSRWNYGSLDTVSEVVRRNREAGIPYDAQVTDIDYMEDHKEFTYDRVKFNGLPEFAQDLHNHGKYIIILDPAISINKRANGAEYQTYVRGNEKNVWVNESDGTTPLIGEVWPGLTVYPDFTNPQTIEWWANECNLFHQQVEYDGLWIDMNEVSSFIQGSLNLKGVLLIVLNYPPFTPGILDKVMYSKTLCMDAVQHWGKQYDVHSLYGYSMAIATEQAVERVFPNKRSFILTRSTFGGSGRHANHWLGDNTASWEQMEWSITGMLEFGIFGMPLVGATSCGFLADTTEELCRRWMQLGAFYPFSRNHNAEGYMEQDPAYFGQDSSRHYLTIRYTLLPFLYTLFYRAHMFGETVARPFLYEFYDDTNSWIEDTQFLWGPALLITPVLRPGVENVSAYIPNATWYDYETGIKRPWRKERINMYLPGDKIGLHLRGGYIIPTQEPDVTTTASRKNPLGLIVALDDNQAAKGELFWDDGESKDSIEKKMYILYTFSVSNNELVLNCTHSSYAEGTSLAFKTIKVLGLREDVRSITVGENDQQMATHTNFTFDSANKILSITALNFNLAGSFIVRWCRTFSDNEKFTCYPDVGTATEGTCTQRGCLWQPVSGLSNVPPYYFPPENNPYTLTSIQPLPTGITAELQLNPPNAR
- Sequence (P23739 1014-1841 limits assumed): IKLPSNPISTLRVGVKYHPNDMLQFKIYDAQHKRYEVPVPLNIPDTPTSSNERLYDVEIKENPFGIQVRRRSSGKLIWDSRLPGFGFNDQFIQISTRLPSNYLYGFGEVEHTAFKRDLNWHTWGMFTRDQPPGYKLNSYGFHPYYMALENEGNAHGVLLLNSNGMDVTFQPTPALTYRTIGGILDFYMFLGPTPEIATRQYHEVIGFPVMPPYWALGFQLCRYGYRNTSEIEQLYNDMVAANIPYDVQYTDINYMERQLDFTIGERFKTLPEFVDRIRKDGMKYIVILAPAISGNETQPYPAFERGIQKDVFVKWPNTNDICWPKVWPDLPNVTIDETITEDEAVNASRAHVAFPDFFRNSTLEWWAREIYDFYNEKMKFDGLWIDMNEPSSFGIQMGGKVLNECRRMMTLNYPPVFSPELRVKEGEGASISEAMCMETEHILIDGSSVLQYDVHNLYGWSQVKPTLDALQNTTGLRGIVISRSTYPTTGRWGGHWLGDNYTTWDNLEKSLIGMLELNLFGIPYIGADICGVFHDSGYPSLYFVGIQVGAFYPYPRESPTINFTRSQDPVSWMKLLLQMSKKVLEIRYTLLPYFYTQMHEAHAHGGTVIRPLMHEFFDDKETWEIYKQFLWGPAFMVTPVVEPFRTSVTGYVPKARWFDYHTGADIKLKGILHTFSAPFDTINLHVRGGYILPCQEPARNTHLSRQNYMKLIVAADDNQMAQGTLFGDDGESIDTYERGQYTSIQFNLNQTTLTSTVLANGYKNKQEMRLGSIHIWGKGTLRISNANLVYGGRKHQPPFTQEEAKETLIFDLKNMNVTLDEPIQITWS
- testMethodNotes: Inhibition of rat intestinal brush border membrane isomaltase
pIC50: −log10 of the molar value.
observable: pIC50

The following compounds have reported results that may help.
> print(dat)
                                  molsmiles                                    target  experimentalvalue
1  N[C@H]1C[C@](O)(CO)[C@@H](O)[C@H](O)[C@H]1O  Sucrase-isomaltase, intestinal (Rattus norvegicus, UniProt P23739)               5.68
2  OC[C@H]1N[C@H](CO[C@@H]2O[C@H](CO)[C@@H](O)[C@H](O)[C@H]2O)[C@H](O)[C@@H](O)[C@@H]1O  Sucrase-isomaltase, intestinal (Rattus norvegicus, UniProt P23739)               6.22

(a) OC[C@H]1NCC[C@@H](O)[C@@H]1O
(b) OCC(CO)N[C@H]1C[C@](O)(CO)[C@@H](O)[C@H](O)[C@H]1O
Qu. Task for the reader: decide whether a or b has the larger pIC50. Field: selected label. Fill in the label of the entry you choose.
Ans. b
(b: 6.80, a: 3.34)
